Provenance of the data: paper PMC10786891

Exercise: for every item that follows, state its recorded Kd.
Molecular target: T1, EsCas13d, nuclease-dead (Eubacterium siraeum, UniProt B0MS50, R295A;H300A;R849A;H854A)
T1 sequence: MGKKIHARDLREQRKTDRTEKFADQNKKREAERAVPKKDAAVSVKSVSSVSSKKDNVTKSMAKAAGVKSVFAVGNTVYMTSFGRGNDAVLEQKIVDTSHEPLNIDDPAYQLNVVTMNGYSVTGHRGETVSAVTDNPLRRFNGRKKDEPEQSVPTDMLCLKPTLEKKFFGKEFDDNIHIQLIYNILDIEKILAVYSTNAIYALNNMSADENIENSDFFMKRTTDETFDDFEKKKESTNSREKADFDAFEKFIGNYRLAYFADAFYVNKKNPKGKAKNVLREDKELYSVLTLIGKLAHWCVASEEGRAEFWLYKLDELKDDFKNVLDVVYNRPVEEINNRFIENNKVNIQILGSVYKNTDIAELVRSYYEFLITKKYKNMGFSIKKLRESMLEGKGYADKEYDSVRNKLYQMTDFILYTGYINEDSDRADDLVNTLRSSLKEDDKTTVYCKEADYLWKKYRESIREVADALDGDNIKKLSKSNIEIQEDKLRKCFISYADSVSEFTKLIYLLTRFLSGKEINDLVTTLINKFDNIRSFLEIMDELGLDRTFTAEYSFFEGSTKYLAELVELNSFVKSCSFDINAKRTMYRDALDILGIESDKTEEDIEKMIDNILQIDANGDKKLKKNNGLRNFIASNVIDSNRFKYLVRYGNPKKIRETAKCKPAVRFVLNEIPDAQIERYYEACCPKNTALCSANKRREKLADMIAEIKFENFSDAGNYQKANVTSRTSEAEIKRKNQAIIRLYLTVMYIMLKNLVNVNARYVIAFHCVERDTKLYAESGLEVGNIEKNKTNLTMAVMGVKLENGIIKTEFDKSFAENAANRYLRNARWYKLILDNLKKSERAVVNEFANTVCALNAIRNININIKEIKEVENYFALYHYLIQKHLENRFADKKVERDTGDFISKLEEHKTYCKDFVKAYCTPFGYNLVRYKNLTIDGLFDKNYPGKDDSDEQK
Experiment: crRNA (strand 1, pre-loaded); Mg2+; 40 mM Tris-HCl pH 7.5, 150 mM NaCl, 6 mM MgCl2, 1 mM DTT, 0.1% Tween-20, 0.2 mg/ml BSA; 25 C; 10 min per concentration, then washed
Settings: tags: His6-TwinStrep-SUMO cleaved; N-terminal SNAP kept (SNAP-Surface 488); label: 3' end held by stalled T7 RNA polymerase
Your answer should be a plain number; it is taken to be in nM.

Consider the binder shown here: target 2 MT 5'PFS GCC 3'PFS AGA (mixed) RNA 1: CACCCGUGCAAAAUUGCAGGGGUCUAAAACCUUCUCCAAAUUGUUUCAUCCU RNA 2: GGGAAUGGAUCCACAUCUACGAAUUCGCCAGGAUGAAACAAUUUGGAGAAGAGAAGAUCGGAAGAGCACACGU What is its recorded Kd?
10.5

Consider the binder shown here: target 1 insU 3' of 4,insU 3' of 1 (mixed) RNA 1: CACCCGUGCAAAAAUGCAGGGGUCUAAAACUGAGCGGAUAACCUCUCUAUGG RNA 2: GGGAAUGGAUCCACAUCUACGAAUUCGUACCAUAGAGAGGUUAUCCGCUUCAUCCGAGAUCGGAAGAGCACACGU What is its recorded Kd?
8.56

Consider the binder shown here: target 1 G5U,C7G (mixed) RNA 1: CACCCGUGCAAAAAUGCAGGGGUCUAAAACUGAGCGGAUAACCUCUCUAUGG RNA 2: GGGAAUGGAUCCACAUCUACGAAUUCGUACCAUAGAGAGGUUAUGCUCUCACCGAGAUCGGAAGAGCACACGU What is its recorded Kd?
16.8

Consider the binder shown here: target 1 insC 3' of 18,insA 3' of 15 (mixed) RNA 1: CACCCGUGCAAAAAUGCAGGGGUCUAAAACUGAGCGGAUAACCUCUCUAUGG RNA 2: GGGAAUGGAUCCACAUCUACGAAUUCGUACCAUACGAGAAGGUUAUCCGCUCACCGAGAUCGGAAGAGCACACGU What is its recorded Kd?
25.1
